Numbers sourced from PubChem BioAssay (EPA / NIEHS).

# Experimental target: Cellular tumor antigen p53 (Homo sapiens) (UniProt P04637)
# Sequence (P04637 whole entry, looked up): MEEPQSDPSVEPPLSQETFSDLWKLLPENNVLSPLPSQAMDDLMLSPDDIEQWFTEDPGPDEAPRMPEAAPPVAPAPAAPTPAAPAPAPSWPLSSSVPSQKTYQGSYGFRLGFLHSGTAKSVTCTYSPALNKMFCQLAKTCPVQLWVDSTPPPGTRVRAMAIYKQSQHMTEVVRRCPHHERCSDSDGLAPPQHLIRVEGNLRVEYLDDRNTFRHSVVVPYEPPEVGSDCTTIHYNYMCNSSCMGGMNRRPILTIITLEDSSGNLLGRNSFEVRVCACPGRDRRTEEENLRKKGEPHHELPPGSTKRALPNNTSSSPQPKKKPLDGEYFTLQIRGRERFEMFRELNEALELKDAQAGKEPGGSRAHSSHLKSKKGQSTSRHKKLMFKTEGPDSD
# Assay: TOX21_p53_BLA_p2_ratio: Tox21 HCT-116 p53 Agonism Beta-lactamase Assay, Ratio, Phase 2 (AID 2283592)
Records with an inconclusive call do not appear. Calls of active or inactive are those of the source. Rule for the calls: active = hit-call score of the fitted dose curve at least 0.9, where 1 is the maximum; inconclusive = response in the unintended direction; inactive = score below 0.9.
Answer with one of the outcomes given here: Yes (active), No (inactive)

Compound	Class
CC(=O)Oc1ccc(C(=C2CCCCC2)c2ccc(OC(C)=O)cc2)cc1	No
OCCN1CCN(CC/C=C2/c3ccccc3Sc3ccc(Cl)cc32)CC1	No
CC1=C(/C=C/C(C)=C/C=C/C(C)=C/C=C/C=C(C)/C=C/C=C(C)/C=C/C2=C(C)CCCC2(C)C)C(C)(C)CCC1	No
O=C(O)CSCC(=O)NC1CCSC1=O (configuration not stated)	No
NNCCc1ccccc1	No

Assay result, entry Cc1cc(Nc2ccccc2C(=O)O)ccc1Cl — outcome?
Yes

Record request — test call for CCN(CC)CCOCCOC(=O)C(CC)(CC)c1ccccc1
No

Give the logged outcome of this assay for the following compound: CCCC(C)CC (configuration not stated)
No

For C=CCCCCCCC=C , which call appears in the assay record?
No

Test call, this compound: CCCCC[C@H](O)/C=C/[C@@H]1[C@H]2C/C(=C/CCCC(=O)O)O[C@H]2C[C@H]1O
No

Could you kindly confirm the outcome this assay logged for CCCCCCCCCCCCCCCCCC[N+](C)(C)C ?
Yes

// param item: Cc1ccc(O)c(C(=O)c2ccccc2)c1 ; yields the recorded call
No
